- Assayed system: Induced myeloid leukemia cell differentiation protein Mcl-1 (Homo sapiens) (UniProt Q07820)
- Sequence (Q07820 whole entry, looked up): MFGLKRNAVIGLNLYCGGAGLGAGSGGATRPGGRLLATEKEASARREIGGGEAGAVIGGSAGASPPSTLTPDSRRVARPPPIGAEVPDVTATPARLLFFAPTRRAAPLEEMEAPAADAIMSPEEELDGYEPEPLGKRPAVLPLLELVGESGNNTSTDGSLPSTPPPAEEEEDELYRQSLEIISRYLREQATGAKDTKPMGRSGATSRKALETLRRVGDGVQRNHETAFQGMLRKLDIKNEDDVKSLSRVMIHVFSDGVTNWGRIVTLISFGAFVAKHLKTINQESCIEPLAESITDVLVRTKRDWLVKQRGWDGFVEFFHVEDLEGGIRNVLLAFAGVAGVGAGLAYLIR
- Experimental protocol: Mcl-1/Noxa binding inhibitor potency, dose response, biochemical, TR-FRET (AID 1417)
- Experimental parameters: Mcl-1/Noxa peptide interaction, cell-free TR-FRET (terbium/rhodamine), 2 h; measured here: absolute IC50
pIC50: −log10 of the molar value.
# pIC50 listing for each entry below
Assay metric: pIC50

>>> reported_measurement("CCc1nc(Nc2ccc(N3CCN(C(C)=O)CC3)cc2)c2oc3ccccc3c2n1")
"< 4.27"
>>> reported_measurement("CCOC(=O)CSc1nnc2n1C(C)(C)Cc1ccccc1-2")
"< 4.27"
>>> reported_measurement("Cc1ccc(-n2nc3cc(C)c(N)cc3n2)cc1")
"> 6.40"

###

# pIC50 listing for each entry below
- Assayed system: Induced myeloid leukemia cell differentiation protein Mcl-1 (Homo sapiens) (UniProt Q07820)
- Experimental protocol: Mcl-1/Noxa binding inhibitor potency, dose response, biochemical, TR-FRET (AID 1417)
- Experimental parameters: Mcl-1/Noxa peptide interaction, cell-free TR-FRET (terbium/rhodamine), 2 h; measured here: absolute IC50
pIC50: −log10 of the molar value.
Assay metric: pIC50

>>> reported_measurement("CCN(CC)S(=O)(=O)c1cccc(C(=O)N/N=C/c2ccc(O)c(O)c2O)c1")
"> 6.40"
>>> reported_measurement("Cc1ccc(N2CC(C(=O)Nc3ccc(N(C)C)cc3)CC2=O)cc1C (stereo not given)")
"< 4.27"
>>> reported_measurement("COc1ccc(N2CCC(CNC(=S)Nc3cccc(OC)c3)C2)cc1 (stereo not given)")
"< 4.27"
>>> reported_measurement("COc1ccc(/C=C2\\C(=O)NC(=S)N2C(=O)c2ccc(C)cc2)cc1")
"< 4.27"
>>> reported_measurement("O=c1nc2s/c(=C\\c3ccc(-c4ccccc4[N+](=O)[O-])o3)c(=O)n2nc1-c1ccccc1")
"> 6.40"
>>> reported_measurement("CCN(CC)c1ccc(NC(=O)Nc2cccc(C(C)=O)c2)cc1")
"< 4.27"
>>> reported_measurement("COc1ccc(-n2cccc2/C=C2\\C(=N)N3N=C(c4ccco4)SC3=NC2=O)cc1")
"> 6.40"
>>> reported_measurement("Cc1cc(C)c(S(=O)(=O)/N=C2/C=C(Sc3ncn[nH]3)C(=O)c3ccccc32)cc1C")
"> 6.40"
>>> reported_measurement("COc1ccccc1Nc1nc(-c2sc(NC(=O)c3ccc([N+](=O)[O-])cc3)nc2C)cs1")
"> 6.40"
>>> reported_measurement("CCCOc1ccc(C(=O)Nc2ccc(N(C)C)cc2)cc1")
"< 4.27"
>>> reported_measurement("COc1cc(/C=C2\\SC(=S)N(CC(=O)Nc3ccc(O)cc3)C2=O)cc(OC)c1OC")
"> 6.40"
>>> reported_measurement("Oc1c(Cl)cc(Cl)cc1/C=C/c1ccc2cccc(O)c2n1")
"< 4.27"
>>> reported_measurement("O=C(O)COc1ccccc1C(Nc1ccccn1)c1cc(Cl)c2cccnc2c1O (stereo not given)")
"> 6.40"
>>> reported_measurement("Cc1ccc(NC(=O)CN2C(=O)N/C(=C/c3cc(C)n(-c4ccc(C(=O)O)cc4)c3C)C2=O)cc1")
5.29
>>> reported_measurement("O=C(Nc1ccc(N2CCOCC2)cc1)Nc1ccc(Cl)c(Cl)c1")
"< 4.27"
>>> reported_measurement("Cc1cc(NC(=O)Cc2cccs2)no1")
"> 6.40"
>>> reported_measurement("CCOC(=O)c1c(C)oc2c1c(CN1CCN(C(=O)OCC)CC1)c(O)c1ccccc12")
"> 6.40"
>>> reported_measurement("O=C(OCC(=O)N1CCN(C(=O)c2ccco2)CC1)c1cc(-c2ccco2)nc2ccccc12")
5.72
>>> reported_measurement("Cc1sc(-n2c(C)cc(/C=C3\\SC(=S)NC3=O)c2C)c(C#N)c1C")
5.39
>>> reported_measurement("Oc1cc2c(cc1C(c1ccc(Cl)c(Cl)c1)N1CCCC1)OCO2 (stereo not given)")
"< 4.27"
>>> reported_measurement("O=C1/C(=C\\c2ccc(O)cc2)SC(=S)N1/N=C/c1ccc(O)cc1")
5.52
>>> reported_measurement("O=C1CCCC2=C1C(c1ccc(O)c(O)c1)Nc1ccc3ncccc3c12 (stereo not given)")
"> 6.40"
>>> reported_measurement("CNc1ccc(Br)cc(C(=O)/C=C/c2cccc(OC)c2)c1=O")
5.31
>>> reported_measurement("O=[N+]([O-])c1cc(CN2CCOCC2)c2cccnc2c1O")
"> 6.40"
>>> reported_measurement("CNc1ccc(Br)cc(C(=O)/C=C/c2ccc(Cl)cc2Cl)c1=O")
5.85
